For each record, write down the corresponding plasma concentration of the compound of the examples.
# test: Plasma stability test (Test Example 3)
# Assay type: in vitro ADME
# details: human plasma, 37° C., 0 min
Give bare numbers, in nM.

| structureNotation | measuredValue |
| --- | --- |
| CC(C)[C@H](N)C(=O)OCCCOC(=O)N1C[C@@]2(CCC(=O)N2)CC[C@@]1(CO[C@H](C)c1cc(C(F)(F)F)cc(C(F)(F)F)c1)c1ccccc1.O=C(O)C(F)(F)F | 1040 |
| CC(C)[C@H](N)C(=O)OCCOC(=O)N1C[C@@]2(CCC(=O)N2)CC[C@@]1(CO[C@H](C)c1cc(C(F)(F)F)cc(C(F)(F)F)c1)c1ccccc1.O=C(O)C(F)(F)F | 1010 |
| C[C@@H](OC[C@@]1(c2ccccc2)CC[C@]2(CCC(=O)N2)CN1C(=O)OCCN1CCN(C)CC1)c1cc(C(F)(F)F)cc(C(F)(F)F)c1 | 1160 |

Please give measured plasma concentration of the compound of the examples of the following entry: C[C@@H](OC[C@@]1(c2ccccc2)CC[C@]2(CCC(=O)N2C(=O)OCC(=O)O)CN1)c1cc(C(F)(F)F)cc(C(F)(F)F)c1 980

---

# test: In vivo pharmacokinetic test in rats (Test Example 5)
# details: plasma; rat, intravenous bolus 2 mg/kg; read-out: AUC0-∞ of the compound of the example
metricName: AUC(0-inf)
Please report the result as a number followed by the unit.

Please report AUC(0-inf) for the following compound: C[C@@H](OC[C@@]1(c2ccccc2)CC[C@]2(CCC(=O)N2)CN1C(=O)OCCCOP(=O)(O)O)c1cc(C(F)(F)F)cc(C(F)(F)F)c1 [Example 2] 42.2 ng·h/mL

---

# test: Pharmacokinetic test in cynomolgus monkeys, Example 5 (Test Example 6)
# Type: in vivo
# details: plasma; cynomolgus monkey, iv 2 mg/kg Example 5; analyte Example 5; read-out: Cmax
metricName: Cmax (ng/mL)
Numbers only, in ng/mL.

Identify Cmax associated with the compound CC(C)[C@H](N)C(=O)OCOC(=O)N1C[C@@]2(CCC(=O)N2)CC[C@@]1(CO[C@H](C)c1cc(C(F)(F)F)cc(C(F)(F)F)c1)c1ccccc1 [Example 5] 2.28

---

# test: In vivo pharmacokinetic test in rats (Test Example 5)
# details: plasma; rat, intravenous bolus 2 mg/kg; read-out: MRT 0-∞ of the compound of the example
metricName: MRT inf (min)
Answers are plain numbers, in min.

Report MRT inf, nothing else, for this compound: C[C@@H](OC[C@@]1(c2ccccc2)CC[C@]2(CCC(=O)N2)CN1C(=O)OCCCOP(=O)(O)O)c1cc(C(F)(F)F)cc(C(F)(F)F)c1 4.38

---

# test: Water solubility (Test Example 1)
# Format: physicochemical
# details: phosphate buffer, aqueous buffer, thermodynamic from solid; PH = 3
# Experimental: 1.1. Preparation of Reagents The 100 mL strength reagents were prepared as follows: pH=3.0: phosphate buffer solution: 100 ml of 20 mmol/L NaH2PO4, 0.1M H3PO4, adjusting pH to 3.0. […] An appropriate amount of test compound was accurately weighed. The solution was added at a small amount each time for several times and stirred until the compound was dissolved, and the content of the compound in the solution was determined.
metricName: solubility

| structureNotation | solubility |
| --- | --- |
| C[C@@H](OC[C@@]1(c2ccccc2)CC[C@]2(CCC(=O)N2COC(=O)N(C)C)CN1)c1cc(C(F)(F)F)cc(C(F)(F)F)c1 | < 100 µg/mL |
| C[C@@H](OC[C@@]1(c2ccccc2)CC[C@]2(CCC(=O)N2)CN1C(=O)OCCN1CCN(C)CC1)c1cc(C(F)(F)F)cc(C(F)(F)F)c1 | 2080 µg/mL |

Lab note: next compound to report on.
Using known records, supply solubility for C[C@@H](OC[C@@]1(c2ccccc2)CC[C@]2(CCC(=O)N2C(=O)OCC(=O)O)CN1)c1cc(C(F)(F)F)cc(C(F)(F)F)c1 1120 µg/mL
